The measured values listed here are drawn from patent US20210130436A1.

targetEntity: T1, CD96 (UniProt P40200 22-585, limits assumed)
T1 construct: whole, on cells
T1 sequence (looked up): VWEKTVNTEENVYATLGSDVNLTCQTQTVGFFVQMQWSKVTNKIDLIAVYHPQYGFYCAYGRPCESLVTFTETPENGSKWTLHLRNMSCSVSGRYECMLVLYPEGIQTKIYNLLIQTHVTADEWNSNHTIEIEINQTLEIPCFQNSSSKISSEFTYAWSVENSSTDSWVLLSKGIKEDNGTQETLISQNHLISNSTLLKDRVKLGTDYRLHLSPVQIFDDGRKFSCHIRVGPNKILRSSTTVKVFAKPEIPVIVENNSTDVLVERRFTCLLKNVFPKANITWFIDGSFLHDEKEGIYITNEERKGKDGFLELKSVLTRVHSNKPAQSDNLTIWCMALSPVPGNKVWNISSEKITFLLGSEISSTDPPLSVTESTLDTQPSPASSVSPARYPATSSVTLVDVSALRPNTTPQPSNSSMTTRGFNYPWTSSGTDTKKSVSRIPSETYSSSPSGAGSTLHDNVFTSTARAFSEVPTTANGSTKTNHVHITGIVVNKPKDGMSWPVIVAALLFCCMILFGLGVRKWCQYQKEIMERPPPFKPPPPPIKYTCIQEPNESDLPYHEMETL
methodNotes: flow cytometry, Fc fusion at 100 nM, CD96-transfected cells
measurementKind: MFI at 100 nM (MFI)

[I] variant CD155 IgV-Fc S52M (Fc fusion, not shown: a dimerising Fc or GST) WPPPGTGDVVVQAPTQVPGFLGDSVTLPCYLQVPNMEVTHVSQLTWARHGEMGSMAVFHQTQGPSYSESKRLEFVAARLGAELRNASLRMFGLRVEDEGNYTCLFVTFPQGSRSVDIWLRVL
[II] variant CD155 IgV-Fc S42W (Fc fusion, not shown: a dimerising Fc or GST) WPPPGTGDVVVQAPTQVPGFLGDSVTLPCYLQVPNMEVTHVWQLTWARHGESGSMAVFHQTQGPSYSESKRLEFVAARLGAELRNASLRMFGLRVEDEGNYTCLFVTFPQGSRSVDIWLRVL
Task item: Param metric = MFI at 100 nM; output whichever of I , II has the minimum value. Kindly give the label for the entry you pick.
Reply: I
